Test system: MOLT-4 leukemia
Assay: NCI-60 one-dose screen, 48 h (100 = growth as untreated, 0 = no growth, -100 = all killed)
Details: 10 µM unless noted
About 83,000 compounds went through this panel and 20% of them were active in at least one assay; those are over-represented in the sample as a whole.
Label rule met for high-side growth (at or above 70%) and rule not met for low-side growth (below it).

Solved entries:
O=C(CCc1nnc2sc(OCc3ccccc3)nn12)c1nc2ccc([N+](=O)[O-])cc2[nH]1; rule met
O=C1Nc2ccc(Br)cc2/C1=N\N=C/c1cn(Cc2ccccc2)c2ccccc12; rule not met
COc1cc(NC(=O)COc2cc(C)nc3ccc(OC)cc23)cc(OC)c1; rule met

Prompt: Textbook exercise: given the entry `COc1ccc(-c2cc(-c3nnc(SCC(=O)Nc4ccc(/C(C)=N\O)cc4)n3-c3ccccc3)c3cc(OC)ccc3n2)cc1` , state whether its growth is greater than or equal to 70%.
Response: rule not met

Prompt: Textbook exercise: given the entry `O=c1cc(/C=N\Nc2nc(-c3ccc(Cl)cc3Cl)cs2)c2cc(Cl)ccc2o1` , state whether its growth is greater than or equal to 70%.
Response: rule met

###

System: RXF 393 renal
Test: NCI-60 one-dose screen, 48 h (100 = growth as untreated, 0 = no growth, -100 = all killed)
Conditions: 10 µM unless noted
Compounds without any hit were thinned out: in the full panel of roughly 83,000, 20% have a hit.
# growth values compiled below
Give the value, in units of %, as a plain number.

Please review the following examples before continuing.
C[C@H]1[C@H](C)CC[C@]2(C(=O)OCCOCCOCC[P+](c3ccccc3)(c3ccccc3)c3ccccc3)CC[C@]3(C)C(=CC[C@@H]4[C@@]5(C)CC[C@H](OC(=O)C(Cl)Cl)C(C)(C)[C@@H]5CC[C@]43C)[C@H]12; -29.5
COc1cc(/C=C/CO)cc(OC)c1O[C@@H]1O[C@H](CO)[C@@H](O)[C@H](O)[C@H]1O; 100
COc1ccc(Nc2cc(NC(=O)CNc3cc(OC)c(Cl)c(OC)c3Cl)ncn2)cc1; 86.7
COC(=O)c1cncc(C(=O)Nc2ccc(-n3cnc4ccccc43)cc2)c1; 100
COc1ccc(-c2cs/c(=N\N=C\c3ccc(O)cc3O)n2/N=C/c2ccc(O)cc2O)cc1; -35.6
O=[N+]([O-])c1ccc(N=Nc2c(O)c(N=Nc3cc([N+](=O)[O-])cc([N+](=O)[O-])c3O)cc(N=Nc3cc(S(=O)(=O)O)cc4cc(S(=O)(=O)O)cc(O)c34)c2O)cc1; 112

Prompt: Look up growth for this compound: `CN1CCN(C(=O)[C@@]2(C)CC[C@]3(C)CC[C@]4(C)C(=CC[C@@H]5[C@@]6(C)CC[C@H](OC(=O)c7cccnc7)C(C)(C)[C@@H]6CC[C@]54C)[C@@H]3C2)CC1`
Response: 60.3

Prompt: Look up growth for this compound: `COc1ccc(/C=C/C(=O)/C=C(/C=C/c2ccc(OC)c(OC)c2)OB(F)F)cc1OC`
Response: -10.8

Prompt: Look up growth for this compound: `CCOC(=O)c1c(C)nc2c(c1N)/C(=C/c1cccs1)C(=O)N2c1ccc(OC)cc1`
Response: -23.1

Prompt: Look up growth for this compound: `O=C1C(Cl)=C(Nc2ccc3c(c2NC2=C(Cl)C(=O)c4ccccc4C2=O)C(=O)c2ccccc2C3=O)C(=O)c2ccccc21`
Response: 48.5

Prompt: Look up growth for this compound: `C=C1C(=O)O[C@H]2[C@H]1CCC(/C=N/c1ncc(Br)cc1N)=C\CC[C@@]1(C)O[C@@H]21`
Response: -79.3

Prompt: Look up growth for this compound: `CC(=O)Oc1ccc(O)cc1`
Response: 115

Prompt: Look up growth for this compound: `COc1ccc(C(=O)c2cc(OC)c(C)c(OC)c2)cc1OC(=O)CCl`
Response: 18.4

Prompt: Look up growth for this compound: `O=C1NCc2ccc3c(-c4cccc(Cl)c4)c[nH]c3c21`
Response: -3.81

Prompt: Look up growth for this compound: `C=C(C)[C@@H]1CC[C@]2(C(=O)O)CC[C@]3(C)[C@H](CC[C@@H]4[C@@]5(C)C[C@@H](CC#Cc6ccccc6C)C(=O)C(C)(C)[C@@H]5CC[C@]43C)[C@@H]12`
Response: 51.8

Prompt: Look up growth for this compound: `N#Cc1c(-c2ccc(F)cc2)nc(N/N=C/c2cccc(O)c2)nc1N1CCOCC1`
Response: 53.9

Prompt: Look up growth for this compound: `COc1cc2nc3c(=O)n(-c4ccc(C#N)cc4)cnn3c(=O)c2cc1OC`
Response: 100

Prompt: Look up growth for this compound: `Oc1c(CCl)cc(Cl)cc1Cc1cc(Cl)cc(Cc2cc(Cl)cc(CCl)c2O)c1O`
Response: 45.4

Prompt: Look up growth for this compound: CCCCc1nc(Cl)c(C2CC(c3ccc(Cl)cc3)=NN2c2cc(Cl)cc(Cl)c2)[nH]1 (stereo unspecified)
Response: 43.3

Prompt: Look up growth for this compound: `COc1ccc(-n2nc(C(=O)NCC(=O)O)nc2-c2ccccc2)cc1`
Response: 120

Prompt: Look up growth for this compound: `COc1cccc(NC(=O)Nc2ccc(Nc3ncnc4[nH]c(C)c(C)c34)cc2)c1`
Response: 111

Prompt: Look up growth for this compound: `Nc1ccc2c(c1)C(=O)C(=O)c1c-2nc2ccccn12`
Response: 29

###

Test system: A549/ATCC NSCLC
Assay: NCI-60 one-dose screen, 48 h
Conditions: 10 µM unless noted
Experimental: Growth inhibition of the A549/ATCC human Non-Small Cell Lung tumor cell line is measured as a screen for anti-cancer activity. Cells are grown in 96 well plates and exposed to the test compound for 48 hours. Compounds are tested at a single concentration, which is 10^-5 M for most compounds. The reported endpoint is percent growth (GI% or GIPRCNT), where numbers from 0 - 100% represent growth inhibition, and numbers from -100% - 0 represent cell death. […]
The panel holds about 83,000 compounds, 20% with a hit somewhere; the sample as a whole holds those more often. Active and inactive are the calls of the source. How the source made its calls: active means growth percent below 10; inactive means the rest.
Write down one outcome, taken from active, inactive

Solved entries:
COc1ccc(/C=C/C(=O)C(CC2CCC2)C(=O)/C=C/c2ccc(OC)c(OC)c2)cc1OC; active
Nc1c(C(=O)Nc2cccc3ccccc23)sc2nc3c(cc12)CCCCCC3; inactive
O=C(O)c1cn(C2CC2)c2cc(N3CCN(Cc4nnc(Nc5ccccc5)o4)CC3)c(F)cc2c1=O; inactive
COc1ccc(NC(=O)c2ccc(Nc3ncnc4[nH]c(C)c(C)c34)cc2)cc1; inactive
COc1ccc2c(c1)OC13Oc4cc(OC)ccc4C=C1CCCCC3=C2; inactive
CC(C)(C)CC(C)(C)Cc1ccc(OCCOCC[N+](C)(C)Cc2ccccc2)cc1; inactive
COc1cc(NCC(=O)Nc2cc(Nc3ccc(C)cc3)ncn2)c(Cl)c(OC)c1Cl; inactive
CC1=C/C(=N\N=C2/C=C(C)CC(C)(C)C2)CC(C)(C)C1; inactive

Prompt: Query: recorded result category for `COc1cc(N=Nc2cc(S(=O)(=O)O)cc3cc(S(=O)(=O)O)cc(O)c23)c(C)cc1N=Nc1c(S(=O)(=O)O)cc2cc(Nc3ccccc3)ccc2c1O` in this test
Response: inactive

###

Test system: 786-0 renal
Experiment: NCI-60 one-dose screen, 48 h
Settings: 10 µM unless noted
This is part of a sample that, as a whole, favours compounds with a hit. Of some 83,000 tested, about 20% had one in any assay. The source made the active and inactive calls. How the source made its calls: active means growth percent below 10; inactive means the rest.
Write down one outcome, taken from true (active), false (inactive)

Solved entries:
O=C1Nc2ccc(Cl)cc2/C1=N/c1nc(-c2ccc(Cl)cc2)cs1; true
C[C@H]1[C@H](C)CC[C@]2(C(=O)OCCOCCOCC[P+](c3ccccc3)(c3ccccc3)c3ccccc3)CC[C@]3(C)C(=CC[C@@H]4[C@@]5(C)CC[C@H](OC(=O)C(Cl)Cl)C(C)(C)[C@@H]5CC[C@]43C)[C@H]12; true
Cc1nc2sc(C(=O)Nc3ccccc3)c(N)c2cc1C(C)O (centres undefined); false

Prompt: Query: recorded result category for `COc1ccc2[nH]c3nc4cnccc4cc3c2c1` in this test
Response: false

###

Test system: UACC-62 melanoma
Test: NCI-60 one-dose screen, 48 h
Conditions: 10 µM unless noted
About 83,000 compounds went through this panel and 20% of them were active in at least one assay; those are over-represented in the sample as a whole. Calls of active or inactive are those of the source. The calls were made as follows: active = growth percent below 10; inactive = the rest.
Write down one outcome, taken from active, inactive

CC1=C(CCCOC(=O)NCCCl)C2=C(C)C3(CC3)[C@@](C)(O)C(=O)C2=C1; inactive
c1ccc(-c2n(Cc3ccc4ccccc4n3)cc[n+]2Cc2ccc3ccccc3c2)cc1; active
CC[C@H](Nc1ncnc2nc[nH]c12)c1nc2cccc(CC(=O)c3ccc(C(=O)NO)cc3)c2c(=O)n1-c1ccccc1; inactive
CCCCn1c(=O)c(/C=C/C(=O)/C=C/c2ccc(O)c(OC)c2)cc2ccc(Cl)cc21; active
CCOC(=O)/C(=C/c1c(-c2ccccc2)[nH]c2ccccc12)C(=O)c1ccc(Cl)cc1; inactive

Prompt: Query: recorded result category for `COC(=O)[C@]1(C)CCC[C@]2(C)[C@H]3C[C@H]4C(C(C)C)=C[C@]3(CC[C@H]21)[C@@H]1C(=O)N(CCC#N)C(=O)[C@@H]14` in this test
Response: inactive

Prompt: Query: recorded result category for `CCN(CC)CC#CCOC(=O)[C@]1(C)CCC[C@]2(C)[C@H]3C[C@H]4C(C(C)C)=C[C@]3(CC[C@H]21)[C@@H]1C(=O)CCC(=O)[C@@H]14` in this test
Response: inactive

Prompt: Query: recorded result category for `CCOC(=O)c1c(C)nc2c(c1N)/C(=C/c1ccc[nH]1)C(=O)N2Cc1ccc(C(F)(F)F)cc1` in this test
Response: inactive

Prompt: Query: recorded result category for `Cc1cc(C)c(NC(=O)c2sc3nc4c(cc3c2N)CCCCCC4)c(C)c1` in this test
Response: inactive

Prompt: Query: recorded result category for `COc1cc(NCC(=O)Nc2cc(Nc3ccc(C)cc3)ncn2)c(Cl)c(OC)c1Cl` in this test
Response: inactive

Prompt: Query: recorded result category for `Cc1c(Cl)cccc1NC(=O)c1sc2nc3c(cc2c1N)COCC3` in this test
Response: inactive

Prompt: Query: recorded result category for `CCCCn1c(=O)c(/C=C/C(=O)/C=C/c2ccc(OC)cc2)cc2cc(Cl)ccc21` in this test
Response: inactive

Prompt: Query: recorded result category for `C[C@H](Oc1cc(-c2cnn(C3CCNCC3)c2)cnc1N)c1c(Cl)ccc(F)c1Cl` in this test
Response: inactive
